- study-system: ovine COX1 (Ovis aries)
- Construct: purchased Cayman Chemical 560131 (kit)
- Sequence (P05979 25-600): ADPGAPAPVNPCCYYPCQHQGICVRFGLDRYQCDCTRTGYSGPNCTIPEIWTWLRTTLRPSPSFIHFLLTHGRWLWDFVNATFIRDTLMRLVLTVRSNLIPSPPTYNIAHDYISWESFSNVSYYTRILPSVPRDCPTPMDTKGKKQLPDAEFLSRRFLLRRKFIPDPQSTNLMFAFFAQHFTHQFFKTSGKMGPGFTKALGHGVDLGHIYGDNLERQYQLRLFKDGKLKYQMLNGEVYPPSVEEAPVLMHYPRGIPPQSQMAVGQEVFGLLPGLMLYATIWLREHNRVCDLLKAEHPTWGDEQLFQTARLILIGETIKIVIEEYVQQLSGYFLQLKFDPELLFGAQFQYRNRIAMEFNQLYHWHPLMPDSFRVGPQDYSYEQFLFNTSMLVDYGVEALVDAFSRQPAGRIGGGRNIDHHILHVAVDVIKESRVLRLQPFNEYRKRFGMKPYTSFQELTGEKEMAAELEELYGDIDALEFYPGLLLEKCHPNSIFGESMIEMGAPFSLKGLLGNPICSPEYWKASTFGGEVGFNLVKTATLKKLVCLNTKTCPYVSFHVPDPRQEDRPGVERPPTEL
- assay-info: COX inhibitor screening assay kit (Cayman No. 560131), COX1
- Format: biochemical
- applied-conditions: The IC50 in µM of COX1, run in duplicate with three concentrations (50, 20, and 5 µM)
- Method: All chemicals were purchased from Sigma-Aldrich and Alfa Aesar. Melting points were determined with an SMP-II Digital Melting Point Apparatus and are uncorrected. IR spectra were obtained using a Perkin Elmer Spectrum 400 FTIR/FTNIR spectrometer. ^1H-NMR and ^13C-NMR spectra were recorded in DMSO-d6 and were performed on two NMR instruments. […] All chemical shifts were recorded as d (ppm). […]
property-measured: IC50 (µM)
Note: unit µM is implicit; provide only the numeric part.

**Query** # query: IC50 of entry CC(C(=O)O)c1cccc(C(=O)c2ccccc2)c1 (stereo not shown) [Ketoprofen, reference compound]
**Result** 0.031

====

Form field: COX1/COX2 Ratio Selectivity (one value per entry).
- study-system: human recombinant COX2 (Homo sapiens, UniProt P35354)
- Construct: purchased Cayman Chemical 560131 (kit)
- assay-info: COX inhibitor screening assay kit (Cayman No. 560131), COX2
- Format: biochemical
- applied-conditions: ratio of IC50 COX1 to IC50 COX2
Format: numeric value only, no unit, no commentary.

Worked set:
[[record]]
given_smiles = "O=C(O)Cc1cc2c(cc1C(=O)c1cccc(Br)c1)OCO2"
study_system = "human recombinant COX2 (Homo sapiens, UniProt P35354)"
property_measured = "COX1/COX2 Ratio Selectivity"
val = 0.144

[[record]]
given_smiles = "O=C(O)Cc1cc2c(cc1C(=O)c1ccc(Cl)cc1Cl)OCO2"
study_system = "human recombinant COX2 (Homo sapiens, UniProt P35354)"
property_measured = "COX1/COX2 Ratio Selectivity"
val = 0.169

[[record]]
given_smiles = "COC(=O)Cc1cc2c(cc1C(=O)c1ccccc1I)OCO2"
study_system = "human recombinant COX2 (Homo sapiens, UniProt P35354)"
property_measured = "COX1/COX2 Ratio Selectivity"
val = 0.862


**Query** Which COX1/COX2 Ratio Selectivity value belongs to `COC(=O)Cc1cc2c(cc1C(=O)c1cccc(Br)c1)OCO2` ?
**Result** 0.864

====

Measured COX1/COX2 Ratio Selectivity of individual entries
- study-system: human recombinant COX2 (Homo sapiens)
- Construct: purchased Cayman Chemical 560131 (kit)
- Sequence (P35354 18-604): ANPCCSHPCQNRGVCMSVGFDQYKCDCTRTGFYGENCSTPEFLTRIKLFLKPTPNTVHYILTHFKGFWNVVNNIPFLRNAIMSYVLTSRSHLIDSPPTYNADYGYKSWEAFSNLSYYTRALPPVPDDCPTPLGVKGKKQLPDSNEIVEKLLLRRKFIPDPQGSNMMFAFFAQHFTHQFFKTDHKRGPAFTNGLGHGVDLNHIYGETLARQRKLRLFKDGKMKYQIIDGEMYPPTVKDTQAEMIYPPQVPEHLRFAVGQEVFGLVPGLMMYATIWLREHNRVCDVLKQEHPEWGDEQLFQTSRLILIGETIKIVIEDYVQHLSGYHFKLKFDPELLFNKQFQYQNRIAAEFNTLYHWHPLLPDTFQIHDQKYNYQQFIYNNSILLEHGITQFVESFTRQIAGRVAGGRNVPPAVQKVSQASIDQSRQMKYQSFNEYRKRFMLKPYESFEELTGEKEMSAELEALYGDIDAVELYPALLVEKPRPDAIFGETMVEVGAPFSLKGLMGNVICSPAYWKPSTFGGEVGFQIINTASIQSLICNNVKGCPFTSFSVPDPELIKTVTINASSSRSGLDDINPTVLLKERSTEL
- assay-info: COX inhibitor screening assay kit (Cayman No. 560131), COX2
- Assay type: biochemical
- applied-conditions: ratio of IC50 COX1 to IC50 COX2
Answer as a number with no unit attached.

[[record]]
given_smiles = "O=C(O)Cc1cc2c(cc1C(=O)c1ccc(I)cc1)OCO2"
study_system = "human recombinant COX2 (Homo sapiens)"
val = 0.861

[[record]]
given_smiles = "O=C(O)Cc1cc2c(cc1C(=O)c1ccccc1)OCO2"
study_system = "human recombinant COX2 (Homo sapiens)"
val = 0.434

[[record]]
given_smiles = "COC(=O)Cc1cc2c(cc1C(=O)c1ccccc1)OCO2"
study_system = "human recombinant COX2 (Homo sapiens)"
val = 0.859

[[record]]
given_smiles = "COC(=O)Cc1cc2c(cc1C(=O)c1ccccc1Br)OCO2"
study_system = "human recombinant COX2 (Homo sapiens)"
val = 0.897


**Query** Need COX1/COX2 Ratio Selectivity, item `O=C(O)Cc1cc2c(cc1C(=O)c1ccccc1I)OCO2`
**Result** 0.250

**Query** Item `COC(=O)Cc1cc2c(cc1C(=O)c1ccc(I)cc1)OCO2` has what recorded COX1/COX2 Ratio Selectivity?
**Result** 0.723

**Query** Suppose we examine the molecule `O=C(O)Cc1cc2c(cc1C(=O)c1ccccc1Br)OCO2` ; what COX1/COX2 Ratio Selectivity value has been reported?
**Result** 1.809
